- procedureSummary: Measurement of logP values by HPLC on reversed phase columns (EEC directive 79/831 Annex V.A8)
- Format: physicochemical
- cond: pH 2.7, 0.1% formic acid in water / acetonitrile gradient, calibration with alkan-2-ones
parameterMeasured: Log P
Numbers only.

The following compounds have reported results that may help.
compound: CC(OCC1CCCCC1)C(=O)Nc1cccc(CON=C(c2ccccc2)c2nnnn2C)n1 (stereo not shown)
Log P: 5.03
--
compound: C=CCSCC(=O)Nc1nc(CON=C(c2ccccc2)n2nnnc2C)cs1
Log P: 3.15
--
compound: Cc1nnnn1C(=NOCc1cccc(NC(=O)CCSCc2ccccc2)n1)c1ccccc1
Log P: 3.89

Ask | Dear colleague, I am looking for the recorded Log P of the following compound: CC(SC1CCCC1)C(=O)Nc1nc(CON=C(c2ccccc2)c2nnnn2C)cs1 (stereo not shown)
Reply | 3.99
